These records show Ki for Human σ1 Receptor (Homo sapiens, UniProt Q99720).

Known results for molecules:
[
  {
    "CHEMICAL SMILES": "Cc1cc(-c2cnn3cc(CN4CCC5(CCOCC5)CC4)cnc23)ccn1",
    "VALUE": "100 to 500 nM"
  },
  {
    "CHEMICAL SMILES": "COC1CCN(Cc2cnc3c(-c4ccnc(C)c4)cnn3c2)CC1",
    "VALUE": "100 to 500 nM"
  },
  {
    "CHEMICAL SMILES": "FC(F)(F)c1ncccc1-n1ccc2cc(CN3CC4(CCOCC4)C3)cnc21",
    "VALUE": "< 100 nM"
  },
  {
    "CHEMICAL SMILES": "Cc1nc2c(-c3ccnc(C(F)(F)F)c3)cnn2c(C)c1CN1CCC2(CC1)COC2",
    "VALUE": "< 100 nM"
  },
  {
    "CHEMICAL SMILES": "FC(F)(F)c1cc(-n2ccc3cc(CN4CCCOCC4)cnc32)ccn1",
    "VALUE": "< 100 nM"
  },
  {
    "CHEMICAL SMILES": "FC(F)(F)c1cc(-c2cnn3cc(CN4CCOCC4)cnc23)ccn1",
    "VALUE": "> 1000 nM"
  },
  {
    "CHEMICAL SMILES": "N#Cc1ncccc1-n1ccc2cc(CN3CCC4(CCOCC4)CC3)cnc21",
    "VALUE": "< 100 nM"
  },
  {
    "CHEMICAL SMILES": "FC(F)(F)c1cc(-c2cnn3cc(CN4CCC5(CCO5)CC4)cnc23)ccn1",
    "VALUE": "100 to 500 nM"
  }
]

Please look at the following molecule next.
(Q) Give the measured Ki of FC(F)(F)c1ncccc1-n1ccc2cc(CN3CCC4(CCOCC4)CC3)cnc21 .
(A) < 100 nM

====

Attribute: Ki
biological target: Human σ2/TMEM97 receptor (Homo sapiens); test: Binding assay to human σ2/TMEM97 receptor ([3H]-DTG, transfected HEK-293 membranes); settings: human σ2/TMEM97, [3H]-DTG 10 nM, binding expressed as Ki, read-out: Binding σ-2

(Q) Ki lookup needed for FC(F)(F)c1cc(-c2cnn3cc(CN4CCC5(CC4)COC5)cnc23)ccn1 , thanks.
(A) > 1000 nM

(Q) Consider the compound shown here: OC1CCN(Cc2cnc3c(-c4ccnc(C(F)(F)F)c4)cnn3c2)CC1 What is its recorded Ki?
(A) > 1000 nM

(Q) Return reported Ki; argument: COC1CCN(Cc2cnc3c(-c4ccnc(C)c4)cnn3c2)CC1
(A) > 1000 nM

(Q) Bench note: what Ki did FC(F)(F)c1cc(-c2cnn3cc(CN4CCC5(CCOC5)CC4)cnc23)ccn1 show?
(A) > 1000 nM

(Q) Ki lookup needed for FC(F)(F)c1cc(-c2cnn3cc(CN4CCC(c5ccccc5)CC4)cnc23)ccn1 , thanks.
(A) 100 to 500 nM

====

molecular target: Human σ2/TMEM97 receptor (Homo sapiens, UniProt Q5BJF2); experiment: Binding assay to human σ2/TMEM97 receptor ([3H]-DTG, transfected HEK-293 membranes); details: human σ2/TMEM97, [3H]-DTG 10 nM, binding expressed as Ki, read-out: Binding σ-2
Sequence (Q5BJF2 whole entry): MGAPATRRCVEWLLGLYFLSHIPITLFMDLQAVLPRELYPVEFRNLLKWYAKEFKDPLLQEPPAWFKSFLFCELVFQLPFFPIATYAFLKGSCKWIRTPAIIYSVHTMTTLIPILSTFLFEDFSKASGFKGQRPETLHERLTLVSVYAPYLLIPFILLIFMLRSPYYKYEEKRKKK
pKi: −log10 of the molar value.
RECORDED ENDPOINT: pKi

[
  {
    "CHEMICAL SMILES": "CCOCC1CCN(Cc2cnc3c(-c4ccnc(C(F)(F)F)c4)cnn3c2)CC1",
    "pKi": "6.00 to 6.30"
  }
]

(Q) Requested field: pKi. Item: Fc1cnccc1-c1cnn2cc(CN3CCCC3)cnc12
(A) < 6.00

(Q) Report pKi for Clc1cc(-c2cnn3cc(CN4CCC5(CC4)COC5)cnc23)ccn1 please.
(A) < 6.00

(Q) Fill blank: measured pKi of the molecule FC(F)(F)c1ccc(-n2ccc3cc(CN4CCCOCC4)cnc32)cn1 is ____.
(A) 6.00 to 6.30

(Q) Look at this molecule and give its reported pKi. FC(F)(F)c1cc(-c2cnn3cc(CN4CCC5(CCO5)CC4)cnc23)ccn1
(A) < 6.00

(Q) Query: pKi; subject: FC(F)(F)c1ccc(-n2ccc3cc(CN4CCC5(CCOCC5)CC4)cnc32)cn1
(A) 6.30 to 7.00

(Q) # get_value(readout='pKi', item= FC(F)(F)c1cc(-c2cnn3cc(CN4CC5(CCOCC5)C4)cnc23)ccn1 )
(A) < 6.00
